Target Or Test System: T1, human Y1 receptor (human, UniProt P25929 1-384)
T1 construct: whole, on cells; stably transfected 293 cells for function
T1 sequence (looked up): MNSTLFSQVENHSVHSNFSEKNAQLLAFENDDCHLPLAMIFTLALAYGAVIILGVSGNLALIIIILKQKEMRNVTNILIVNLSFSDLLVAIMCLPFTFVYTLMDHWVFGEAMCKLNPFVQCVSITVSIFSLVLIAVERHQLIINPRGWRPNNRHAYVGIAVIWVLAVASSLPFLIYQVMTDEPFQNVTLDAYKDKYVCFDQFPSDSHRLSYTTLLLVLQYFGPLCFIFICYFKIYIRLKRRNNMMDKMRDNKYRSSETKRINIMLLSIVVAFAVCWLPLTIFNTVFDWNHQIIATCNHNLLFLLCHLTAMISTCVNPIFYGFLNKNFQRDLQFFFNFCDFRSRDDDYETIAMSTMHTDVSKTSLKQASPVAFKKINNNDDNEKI
Assay Procedure: 125I-PYY displacement, COS-7 membranes
Measured Quantity: Ki (nM)
Report the value in nM with no unit label.

Specify measured Ki for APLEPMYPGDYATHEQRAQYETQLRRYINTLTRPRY (peptide, UniProt P06303 30-65, looked up, mature; also called PP, rat) [rat PP] .
450
